Measured values drawn from ChEMBL document CHEMBL5390237 for this set.

inhibition by entry:
biological target: Histone deacetylase 2 (Homo sapiens); assay: Inhibition of full-length recombinant human C-terminal GST tagged HDAC2 expressed in Sf9 insect cells using aminoluciferin peptide substrate at 100 nM preincubated for 3 hrs followed by substrate addition and measured after 30 mins by HDAC-Glo I/II chemiluminescence assay; conditions: time 3.5 hrs
Sequence (Q92769 whole entry): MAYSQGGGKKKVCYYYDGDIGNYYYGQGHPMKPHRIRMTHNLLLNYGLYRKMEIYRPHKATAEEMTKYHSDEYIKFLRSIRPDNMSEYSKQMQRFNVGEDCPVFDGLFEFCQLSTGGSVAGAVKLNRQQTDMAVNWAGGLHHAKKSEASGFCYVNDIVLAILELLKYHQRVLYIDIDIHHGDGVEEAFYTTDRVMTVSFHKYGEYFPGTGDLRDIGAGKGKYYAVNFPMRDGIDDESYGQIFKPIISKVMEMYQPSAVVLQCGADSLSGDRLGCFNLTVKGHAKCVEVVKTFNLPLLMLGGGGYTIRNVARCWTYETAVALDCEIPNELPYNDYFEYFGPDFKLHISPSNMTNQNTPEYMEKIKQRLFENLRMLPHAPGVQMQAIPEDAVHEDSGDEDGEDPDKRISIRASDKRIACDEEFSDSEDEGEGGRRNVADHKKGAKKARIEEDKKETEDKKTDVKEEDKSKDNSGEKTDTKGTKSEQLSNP

# chemical_string, inhibition
data = [
    ("Nc1ccc(-c2cccs2)cc1NC(=O)c1cccc(-c2cn(Cc3cccc4ccccc34)nn2)c1", "14%"),
    ("COc1ccccc1CCn1cc(C(=O)Nc2cc(-c3cccs3)ccc2N)nn1", "6%"),
    ("Nc1ccc(-c2cccs2)cc1NC(=O)c1ccc(-c2cn(Cc3cccc(C(=O)O)c3)nn2)cc1", "0%"),
    ("Nc1ccc(-c2ccccc2)cc1NC(=O)CCc1cn(CCc2ccc([N+](=O)[O-])cc2)nn1", "13%"),
    ("Nc1ccc(-c2cccs2)cc1NC(=O)c1ccc(-c2cn(CCCCCCC(=O)O)nn2)cc1", "0%"),
    ("Nc1ccc(-c2ccc(F)cc2)cc1NC(=O)c1cn(CCC2CCCCC2)nn1", "5%"),
    ("Nc1ccc(-c2cccs2)cc1NC(=O)c1cn(Cc2ccc(-c3ccccc3)cc2)nn1", "0%"),
    ("Nc1ccc(-c2ccsc2)cc1NC(=O)CCc1cn(Cc2ccc3ccccc3c2)nn1", "16%"),
]
